conditions: in 2-butanone, 283.15 K

Cpd smiles: NC(N)=NCCC[C@H](NC(=O)OCc1ccccc1)C(=O)O
solubility (mole fraction): 9.88e-05

---

conditions: in water, 313.15 K

Cpd smiles: NC(N)=NCCC[C@H](NC(=O)OCc1ccccc1)C(=O)O
solubility (mole fraction): 0.000663

---

conditions: in DMF, 293.15 K
Readout kind: solubility (mole fraction)

Cpd smiles: NC(N)=NCCC[C@H](NC(=O)OCc1ccccc1)C(=O)O
Meas value: 0.00346

---

settings: in acetone, 313.15 K

Cpd smiles: NC(N)=NCCC[C@H](NC(=O)OCc1ccccc1)C(=O)O
solubility (mole fraction): 6.89e-05

---

details: in acetonitrile, 323.15 K

Cpd smiles: NC(N)=NCCC[C@H](NC(=O)OCc1ccccc1)C(=O)O
solubility (mole fraction): 4.82e-05

---

settings: in ethanol, 283.15 K

Cpd smiles: NC(N)=NCCC[C@H](NC(=O)OCc1ccccc1)C(=O)O
solubility (mole fraction): 0.000193

---

conditions: in n-butanol, 303.15 K
Readout kind: solubility (mole fraction)

Cpd smiles: NC(N)=NCCC[C@H](NC(=O)OCc1ccccc1)C(=O)O
Readout kind: solubility (mole fraction)
Meas value: 0.000141

---

conditions: in dichloromethane, 288.15 K
Readout kind: solubility (mole fraction)

Cpd smiles: NC(N)=NCCC[C@H](NC(=O)OCc1ccccc1)C(=O)O
Meas value: 0.000103

---

details: in DMF, 313.15 K
Readout kind: solubility (mole fraction)

Cpd smiles: NC(N)=NCCC[C@H](NC(=O)OCc1ccccc1)C(=O)O
Meas value: 0.00993

---

details: in dichloromethane, 303.15 K

Cpd smiles: NC(N)=NCCC[C@H](NC(=O)OCc1ccccc1)C(=O)O
solubility (mole fraction): 0.000233

---

conditions: in acetonitrile, 293.15 K
Readout kind: solubility (mole fraction)

Cpd smiles: NC(N)=NCCC[C@H](NC(=O)OCc1ccccc1)C(=O)O
Readout kind: solubility (mole fraction)
Meas value: 2.71e-05

---

conditions: in acetonitrile, 283.15 K

Cpd smiles: NC(N)=NCCC[C@H](NC(=O)OCc1ccccc1)C(=O)O
solubility (mole fraction): 1.5e-05

---

settings: in n-butanol, 313.15 K
Readout kind: solubility (mole fraction)

Cpd smiles: NC(N)=NCCC[C@H](NC(=O)OCc1ccccc1)C(=O)O
Readout kind: solubility (mole fraction)
Meas value: 0.000178

---

settings: in ethyl acetate, 323.15 K

Cpd smiles: NC(N)=NCCC[C@H](NC(=O)OCc1ccccc1)C(=O)O
solubility (mole fraction): 9.78e-05

---

settings: in n-hexane, 323.15 K

Cpd smiles: NC(N)=NCCC[C@H](NC(=O)OCc1ccccc1)C(=O)O
solubility (mole fraction): 0.000119

---

conditions: in acetone, 323.15 K
Readout kind: solubility (mole fraction)

Cpd smiles: NC(N)=NCCC[C@H](NC(=O)OCc1ccccc1)C(=O)O
Readout kind: solubility (mole fraction)
Meas value: 9.91e-05

---

settings: in methanol, 313.15 K
Readout kind: solubility (mole fraction)

Cpd smiles: NC(N)=NCCC[C@H](NC(=O)OCc1ccccc1)C(=O)O
Readout kind: solubility (mole fraction)
Meas value: 0.00137

---

conditions: in ethanol, 303.15 K

Cpd smiles: NC(N)=NCCC[C@H](NC(=O)OCc1ccccc1)C(=O)O
solubility (mole fraction): 0.000379

---

conditions: in 2-butanone, 293.15 K
Readout kind: solubility (mole fraction)

Cpd smiles: NC(N)=NCCC[C@H](NC(=O)OCc1ccccc1)C(=O)O
Meas value: 0.000118

---

details: in ethanol, 313.15 K

Cpd smiles: NC(N)=NCCC[C@H](NC(=O)OCc1ccccc1)C(=O)O
solubility (mole fraction): 0.000558

---

conditions: in isopropanol, 323.15 K

Cpd smiles: NC(N)=NCCC[C@H](NC(=O)OCc1ccccc1)C(=O)O
solubility (mole fraction): 0.000275

---

details: in n-butanol, 323.15 K
Readout kind: solubility (mole fraction)

Cpd smiles: NC(N)=NCCC[C@H](NC(=O)OCc1ccccc1)C(=O)O
Meas value: 0.000239

---

conditions: in methanol, 303.15 K
Readout kind: solubility (mole fraction)

Cpd smiles: NC(N)=NCCC[C@H](NC(=O)OCc1ccccc1)C(=O)O
Readout kind: solubility (mole fraction)
Meas value: 0.00107
